target_system: SMN_Y127F (Homo sapiens, UniProt Q16637, Y127F)
Construct: cloned into pET28-MHL vector: SMN (aa 82–147); His (N, cleaved yes)
Sequence (Q16637 82-147 Y127F): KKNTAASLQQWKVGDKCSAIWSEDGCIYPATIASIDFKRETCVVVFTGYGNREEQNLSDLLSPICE
test_method_notes: ITC binding to SMN Tudor mutant Y127F
test_parameters: Fig. 3d
endpoint_name: pKd
pKd here: minus log base 10 of the concentration, concentration in moles per litre.

// query Which pKd is listed for Cn1c2c(c(=N)c3c1CCC3)CCC2 [Compound 1] ?
// result 5.40

----------
target_system: TDRD3 (Homo sapiens, UniProt Q9H7E2)
Sequence (Q9H7E2 554-611): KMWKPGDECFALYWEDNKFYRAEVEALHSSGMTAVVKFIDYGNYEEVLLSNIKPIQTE
endpoint_name: Kd (µM)
Give the quantity in µM, number only.

// query Which Kd is listed for Cn1c2c(c(=N)c3c1CCC3)CCC2 [Compound 1] ?
// result 11

----------
target_system: TDRD3_Y566W (Homo sapiens, UniProt Q9H7E2, Y566W)
Construct: TDRD3 (aa 554–611); His (N, cleaved yes)
Sequence (Q9H7E2 554-611 Y566W): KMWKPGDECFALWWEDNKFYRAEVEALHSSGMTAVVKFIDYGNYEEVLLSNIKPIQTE
test_method_notes: ITC binding to TDRD3 mutant Y566W
test_parameters: Supplementary Fig. 11b, iTC-200; read-out: Kd, ITC binding curve, TDRD3_Y566W
endpoint_name: pKd
Scale explanation: pKd corresponds to minus log10 of a concentration expressed in moles per litre.

// query Query (molecule): Cn1c2c(c(=N)c3c1CCC3)CCC2 ; field requested: pKd
// result 5.42

----------
target_system: SND1 (Homo sapiens)
Construct: SND1 (aa 650–910); His (N, cleaved yes); made in house; host or cells: E. coli BL21 (DE3) Codon plus RIL
Sequence (Q7KZF4 650-910): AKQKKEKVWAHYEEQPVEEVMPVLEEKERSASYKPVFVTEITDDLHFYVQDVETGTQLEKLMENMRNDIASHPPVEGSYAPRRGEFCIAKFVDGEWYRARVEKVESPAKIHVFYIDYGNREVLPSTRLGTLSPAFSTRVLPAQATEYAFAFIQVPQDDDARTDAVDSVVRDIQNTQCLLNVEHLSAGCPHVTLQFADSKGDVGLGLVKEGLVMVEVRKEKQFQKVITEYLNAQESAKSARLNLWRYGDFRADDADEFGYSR
test_method_notes: ITC binding to SND1
test_parameters: ITC, Fig. 1c; read-out: Kd (SND1)
pKd: −log10 of the molar value.
endpoint_name: pKd

// query What reported pKd corresponds to Cn1c2c(c(=N)c3c1CCC3)CCC2 [Compound 1] on SND1 (Homo sapiens)?
// result < 4.00

----------
target_system: SMN Tudor domain (Homo sapiens, UniProt Q16637)
Construct: SMN (aa 82–147); His (N, cleaved yes); made in house; host or cells: E. coli BL21 (DE3) Codon plus RIL
Sequence (Q16637 82-147): as the sequence (Q16637 82-147 Y127F) above, with F46Y counted along it
test_method_notes: ITC binding to Tudor domain of SMN
endpoint_name: Kd

// query Which Kd reading was recorded for the compound Nc1cccc2cccnc12 [Compound 8, quinolin-8-amine] ?
// result > 244 µM

----------
target_system: SMN Tudor domain (Homo sapiens, UniProt Q16637)
Construct: SMN (aa 82–147); His (N, cleaved yes); made in house; host or cells: E. coli BL21 (DE3) Codon plus RIL
test_method_notes: ITC binding to Tudor domain of SMN
test_parameters: ITC, Tudor domain of SMN wild type, 25 °C; read-out: Kd (SMN)
endpoint_name: pKd
Reminder that pKd is minus the log10 of a molar concentration.

| molecule | pKd |
| --- | --- |
| N=c1c2c(n(Cc3ccc(F)cc3)c3c1CCC3)CCC2 [Compound 4] | 4.89 |
| CCCCc1c(CCC)c(=N)c2ccccc2n1C [Compound 5] | 4.92 |
| CCCn1c2c(c(=N)c3c1CCC3)CCC2 [Compound 2] | 5.03 |
| Cn1c2c(c(=N)c3c1CCC3)CCC2 [Compound 1] | 5.59 |
| CCOC(=O)Cn1c2c(c(=N)c3c1CCC3)CCC2 [Compound 3] | 4.51 |

We next turn to a different molecule, shown below.
// query Requested field: pKd. Item: Cc1cc(=N)c2ccccc2n1C [Compound 6, 1,2-dimethylquinolin-4(1H)-imine]
// result 4.92

----------
target_system: TDRD2 (Homo sapiens)
Sequence (Q9Y2W6 327-420): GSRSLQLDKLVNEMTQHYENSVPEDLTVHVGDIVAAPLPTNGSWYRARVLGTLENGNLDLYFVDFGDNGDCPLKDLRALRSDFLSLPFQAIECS
endpoint_name: Kd

// query Please report the recorded Kd for Cn1c2c(c(=N)c3c1CCC3)CCC2 .
// result > 244 µM

----------
target_system: SMN_Y127A (Homo sapiens, UniProt Q16637, Y127A)
Construct: cloned into pET28-MHL vector: SMN (aa 82–147); His (N, cleaved yes)
Sequence (Q16637 82-147 Y127A): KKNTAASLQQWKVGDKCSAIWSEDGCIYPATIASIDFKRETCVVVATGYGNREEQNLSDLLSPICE
test_method_notes: ITC binding to SMN Tudor mutant Y127A
test_parameters: Fig. 3d
pKd: −log10 of the molar value.
endpoint_name: pKd

// query Notebook entry, SMN_Y127A (Homo sapiens, UniProt Q16637, Y127A) assay: pKd of Cn1c2c(c(=N)c3c1CCC3)CCC2 = ?
// result < 4.00

----------
target_system: L3MBTL2 (MBT) (Homo sapiens)
Sequence (Q969R5 170-625): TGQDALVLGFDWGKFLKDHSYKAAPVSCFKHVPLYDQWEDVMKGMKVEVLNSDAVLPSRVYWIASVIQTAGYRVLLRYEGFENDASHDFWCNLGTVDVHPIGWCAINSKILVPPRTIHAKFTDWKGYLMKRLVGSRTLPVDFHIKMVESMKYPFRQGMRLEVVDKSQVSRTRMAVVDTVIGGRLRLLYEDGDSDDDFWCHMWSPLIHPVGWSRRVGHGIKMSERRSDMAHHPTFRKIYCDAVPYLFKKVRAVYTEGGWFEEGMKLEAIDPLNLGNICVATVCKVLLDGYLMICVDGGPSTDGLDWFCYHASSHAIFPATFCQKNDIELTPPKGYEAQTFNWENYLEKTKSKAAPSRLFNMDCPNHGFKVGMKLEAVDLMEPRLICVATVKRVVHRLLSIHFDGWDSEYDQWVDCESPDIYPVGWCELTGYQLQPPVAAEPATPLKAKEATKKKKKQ
endpoint_name: Kd

// query Look up Kd for this molecule: Cn1c2c(c(=N)c3c1CCC3)CCC2 [Compound 1]
// result > 244 µM

----------
target_system: JMJD2A (Homo sapiens, UniProt O75164)
Sequence (O75164 897-1064): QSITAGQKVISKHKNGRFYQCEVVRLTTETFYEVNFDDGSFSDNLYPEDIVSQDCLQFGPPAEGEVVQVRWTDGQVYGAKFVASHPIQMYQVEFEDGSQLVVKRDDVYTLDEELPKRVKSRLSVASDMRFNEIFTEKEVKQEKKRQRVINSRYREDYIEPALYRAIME
endpoint_name: Kd

// query Record request: Kd value, item Cn1c2c(c(=N)c3c1CCC3)CCC2 [Compound 1]
// result > 244 µM

----------
target_system: SMN_Y109A (Homo sapiens, UniProt Q16637, Y109A)
Construct: SMN (aa 82–147); His (N, cleaved yes)
Sequence (Q16637 82-147 Y109A): as the sequence (Q16637 82-147 Y127F) above, with Y28A, F46Y counted along it
test_method_notes: ITC binding to SMN Tudor mutant Y109A
test_parameters: Fig. 3d
Protocol: The coding DNA fragments of following Tudor domains were cloned into pET28-MHL vector: SMN (aa 82–147), UHRF1 (aa 126–285), SMNDC1 (aa 53–130), TDRD3 (aa 554–611), SND1 (aa 650–910), TDRD2 (aa 327–420), FXR1 (aa 2–132), PHF1 (aa 28–87), SGF29 (aa 115–293), JMJD2A (aa 897–1101), 53BP1 (aa 1483–1606), SETDB1 (aa 190–410), LBR (aa 1–67), ZGPAT (aa 120–271). […] The molecular weight of all protein samples was measured by mass spectrometry. […]
endpoint_name: pKd
pKd here: minus log base 10 of the concentration, concentration in moles per litre.

// query Endpoint output: pKd of Cn1c2c(c(=N)c3c1CCC3)CCC2 . Value?
// result 4.82

----------
target_system: SMN_Y130A (Homo sapiens, UniProt Q16637, Y130A)
Construct: cloned into pET28-MHL vector: SMN (aa 82–147); His (N, cleaved yes)
Sequence (Q16637 82-147 Y130A): as the sequence (Q16637 82-147 Y127A) above, with A46Y, Y49A counted along it
test_method_notes: ITC binding to SMN Tudor mutant Y130A
test_parameters: Fig. 3d
endpoint_name: Kd

// query So what Kd did Cn1c2c(c(=N)c3c1CCC3)CCC2 get with SMN_Y130A (Homo sapiens, UniProt Q16637, Y130A)?
// result > 244 µM

----------
target_system: SMN_N132A (Homo sapiens, UniProt Q16637, N132A)
Construct: cloned into pET28-MHL vector: SMN (aa 82–147); His (N, cleaved yes)
Sequence (Q16637 82-147 N132A): as the sequence (Q16637 82-147 Y127A) above, with A46Y, N51A counted along it
test_method_notes: ITC binding to SMN Tudor mutant N132A
test_parameters: Fig. 3d
endpoint_name: Kd
Quote the value and follow it with the unit of measurement.

// query Look up Kd: Cn1c2c(c(=N)c3c1CCC3)CCC2
// result 70 µM

----------
target_system: 53BP1 (Homo sapiens)
Sequence (Q12888 1483-1606): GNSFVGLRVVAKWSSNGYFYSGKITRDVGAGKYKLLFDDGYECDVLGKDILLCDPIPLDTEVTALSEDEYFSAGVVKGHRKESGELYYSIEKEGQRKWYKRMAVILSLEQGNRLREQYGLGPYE
endpoint_name: Kd

// query Query (compound): Cn1c2c(c(=N)c3c1CCC3)CCC2 ; field requested: Kd
// result > 244 µM

----------
target_system: UniProtKB Q15047
endpoint_name: Kd

// query Which Kd is listed for Cn1c2c(c(=N)c3c1CCC3)CCC2 ?
// result > 244 µM
